- TESTED_TARGET: P2Y purinoceptor 1 (Homo sapiens, UniProt P47900, Y203A)
- EXPERIMENTAL_DETAILS: Inhibition concentration required against human Y203A (EL2) mutant strain P2Y1 receptor expressed in COS-7 cells is determined using [3H]MRS2279 as radioligand
pIC50: −log10 of the molar value.
READOUT_NAME: pIC50

COMPOUND | READOUT_NAME | RESULT_NUMBER
CNc1ncnc2c1ncn2[C@H]1CC(OP(=O)(O)O)[C@@H](COP(=O)(O)O)O1 (single isomer, unassigned) | pIC50 | 6.13

###

- TESTED_TARGET: P2Y purinoceptor 1 (Homo sapiens, UniProt P47900)
- Sequence (P47900 whole entry): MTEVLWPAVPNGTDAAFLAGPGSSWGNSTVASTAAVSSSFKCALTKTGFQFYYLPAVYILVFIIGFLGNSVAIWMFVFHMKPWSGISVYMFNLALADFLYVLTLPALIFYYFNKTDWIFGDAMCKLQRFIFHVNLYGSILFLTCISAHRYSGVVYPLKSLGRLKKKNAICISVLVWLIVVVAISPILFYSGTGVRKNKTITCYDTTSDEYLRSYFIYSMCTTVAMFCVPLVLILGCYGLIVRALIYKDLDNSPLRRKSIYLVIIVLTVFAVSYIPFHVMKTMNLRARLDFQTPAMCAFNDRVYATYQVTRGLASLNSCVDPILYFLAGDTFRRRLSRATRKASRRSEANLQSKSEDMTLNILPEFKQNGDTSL
- EXPERIMENTAL_DETAILS: Inhibition concentration required against wild type strain P2Y1 receptor expressed in COS-7 cells is determined using [3H]-MRS2279 as radioligand
READOUT_NAME: IC50

COMPOUND | TESTED_TARGET | RESULT
CNc1ncnc2c1ncn2[C@H]1CC(OP(=O)(O)O)[C@@H](COP(=O)(O)O)O1 (single isomer, unassigned) | P2Y purinoceptor 1 (Homo sapiens, UniProt P47900) | 210 nM

###

- TESTED_TARGET: P2Y purinoceptor 1 (Homo sapiens, UniProt P47900, Y306A)
- Sequence (P47900 whole entry Y306A): as the sequence (P47900 whole entry) above, with Y306A counted along it
- EXPERIMENTAL_DETAILS: Inhibition concentration required against human Y306A mutant strain P2Y1 receptor expressed in COS-7 cells is determined using [3H]MRS2279 as radioligand
READOUT_NAME: IC50 (nM)

COMPOUND | READOUT_NAME | MEASURE_UNIT | RESULT_NUMBER
CNc1ncnc2c1ncn2[C@H]1CC(OP(=O)(O)O)[C@@H](COP(=O)(O)O)O1 (single isomer, unassigned) | IC50 | nM | 320

###

- TESTED_TARGET: P2Y purinoceptor 1 (Homo sapiens, UniProt P47900, Y306F)
- Sequence (P47900 whole entry Y306F): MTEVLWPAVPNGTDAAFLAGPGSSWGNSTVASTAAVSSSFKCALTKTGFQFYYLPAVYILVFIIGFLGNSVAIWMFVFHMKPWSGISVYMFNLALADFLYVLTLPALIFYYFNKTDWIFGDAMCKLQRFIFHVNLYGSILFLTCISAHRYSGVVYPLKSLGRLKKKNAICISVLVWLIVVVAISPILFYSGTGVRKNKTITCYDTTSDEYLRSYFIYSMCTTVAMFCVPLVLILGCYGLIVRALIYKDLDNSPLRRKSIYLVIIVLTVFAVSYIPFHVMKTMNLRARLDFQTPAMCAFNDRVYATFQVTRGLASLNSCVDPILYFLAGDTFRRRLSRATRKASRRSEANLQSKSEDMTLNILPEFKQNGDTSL
- EXPERIMENTAL_DETAILS: Inhibition concentration required against human Y306F mutant strain P2Y1 receptor expressed in COS-7 cells is determined using [3H]MRS2279 as radioligand
pIC50: −log10 of the molar value.

COMPOUND | pIC50
CNc1ncnc2c1ncn2[C@H]1CC(OP(=O)(O)O)[C@@H](COP(=O)(O)O)O1 (single isomer, unassigned) | 6.01
